Assay: growth inhibition, single agents and combos, UWB1.289, cell-based, BGB or cisplatin combos, synergistic combos for chromothripsis tumors (AID 1671456);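 note: cells exposed to compound for four days; 0% = vehicle DMSO and 100% = killing by high DMSO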
Settings: UWB1.289 ovarian carcinoma cells, measured here: inhibition with cisplatin combination, at 0.05 µM, stronger effect = higher value

Compound: NC1CCC(N[C@@H]2C[C@H]2c2ccccc2)CC1 (stereo partly specified)
inhibition: -20.9%

Compound: COc1cc(C=O)c([N+](=O)[O-])cc1OC
inhibition: -7.7%

Compound: O=C(COc1cccc2c(=O)[nH]ccc12)c1ccccc1
inhibition: -23.8%

Compound: C[C@]12CCCN1CC1=NNC(=O)c3cc(F)cc4[nH]c2c1c34
inhibition: -2.14%

Compound: Nc1ccc(-c2ccc3ncc4ccc(=O)n(-c5cccc(C(F)(F)F)c5)c4c3c2)cn1
inhibition: 1.16%

Compound: O=C(O)CO.[NH2-].[NH2-].[Pt+2]
inhibition: -3.04%

The reported measurements were obtained from PubChem BioAssay.
